Biological target: T7 RNA polymerase (Escherichia phage T7, UniProt P00573)
Sequence (P00573 whole entry): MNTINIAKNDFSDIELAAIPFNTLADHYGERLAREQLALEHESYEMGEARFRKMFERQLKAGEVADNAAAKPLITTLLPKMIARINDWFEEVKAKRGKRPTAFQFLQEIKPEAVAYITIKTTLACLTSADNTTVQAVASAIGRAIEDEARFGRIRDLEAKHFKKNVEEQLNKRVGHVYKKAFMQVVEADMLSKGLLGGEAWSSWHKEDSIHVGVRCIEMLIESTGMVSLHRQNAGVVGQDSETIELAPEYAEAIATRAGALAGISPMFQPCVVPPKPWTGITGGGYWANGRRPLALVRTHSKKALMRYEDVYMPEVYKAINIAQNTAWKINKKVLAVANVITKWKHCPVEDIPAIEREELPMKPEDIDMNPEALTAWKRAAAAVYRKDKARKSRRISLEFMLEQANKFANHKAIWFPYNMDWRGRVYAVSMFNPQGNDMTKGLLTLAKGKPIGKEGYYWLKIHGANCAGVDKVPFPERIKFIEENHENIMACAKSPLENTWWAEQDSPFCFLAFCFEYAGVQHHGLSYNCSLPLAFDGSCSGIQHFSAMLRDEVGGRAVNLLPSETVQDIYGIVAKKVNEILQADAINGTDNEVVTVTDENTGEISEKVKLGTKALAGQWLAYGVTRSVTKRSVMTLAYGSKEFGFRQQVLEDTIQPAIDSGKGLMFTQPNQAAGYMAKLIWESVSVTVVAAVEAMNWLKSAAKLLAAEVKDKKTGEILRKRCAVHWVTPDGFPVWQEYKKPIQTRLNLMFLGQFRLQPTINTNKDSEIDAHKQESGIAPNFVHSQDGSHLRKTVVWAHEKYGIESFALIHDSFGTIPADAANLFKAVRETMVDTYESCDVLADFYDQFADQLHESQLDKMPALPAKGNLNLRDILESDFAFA
Assay: Capping rate of mRNA transcription initiated by cap analogs (LC-MS)
Assay type: biochemical
Conditions: LC-MS of mRNA 5′ fragment
Method: During the experiment, the volume of materials required for the system was first calculated, and then sample addition was conducted. […] The mRNA precipitate was then washed with 75% ethanol, and after the ethanol was briefly evaporated to dryness, the mRNA was redissolved in sterile enzyme-free water. • (3) The transcription product was purified, and the in vitro transcription yield of mRNA was recorded. • (4) The obtained mRNA was subjected to an annealing reaction with a probe. […]

# Compound, Test system, Capping rate [%]
data = [
    ("CO[C@@H]1[C@H](OP(=O)(O)OC[C@H]2O[C@@H](n3cnc4c(=O)[nH]c(N)nc43)[C@H](O)[C@@H]2O)[C@@H](COP(=O)(O)OP(=O)(O)OP(=O)(O)OC[C@H]2O[C@@H]([n+]3cn(C)c4c(=O)[nH]c(N)nc43)[C@H](O)[C@@H]2C(C)NC(C)=O)O[C@H]1n1cnc2c(N)ncnc21 (some centres unmarked) [YK-CAP-108]", "T7 RNA polymerase (Escherichia phage T7, UniProt P00573)", 95.8),
    ("CO[C@@H]1[C@H](OP(=O)(O)OC[C@H]2O[C@@H](n3cnc4c(=O)[nH]c(N)nc43)[C@H](O)[C@@H]2O)[C@@H](COP(=O)(O)OP(=O)(O)OP(=O)(O)OC[C@H]2OC([n+]3cn(C)c4c(=O)[nH]c(N)nc43)[C@H](NC(C)=O)[C@@H](O)[C@@H]2O)O[C@H]1n1cnc2c(N)ncnc21 (some centres unmarked) [YK-CAP-102]", "T7 RNA polymerase (Escherichia phage T7, UniProt P00573)", 30.2),
]

====

assay: Characterization of lipid nanoparticles encapsulating Fluc-mRNA prepared from different cap structures; type: physicochemical; conditions: encapsulation efficiency of LNP with Fluc-mRNA transcribed using the named cap analog

# Molecule, Measure unit, EE
records = [
    ("CCN(CC)C(=O)[C@H]1[C@@H](O)[C@H]([n+]2cn(C)c3c(=O)[nH]c(N)nc32)O[C@@H]1COP(=O)(O)OP(=O)(O)OP(=O)(O)OC[C@H]1O[C@@H](n2cnc3c(N)ncnc32)[C@H](OC)[C@@H]1OP(=O)(O)OC[C@H]1O[C@@H](n2cnc3c(=O)[nH]c(N)nc32)[C@H](O)[C@@H]1O", "%", 95.1),
    ("CO[C@@H]1[C@H](OP(=O)(O)OC[C@H]2O[C@@H](n3cnc4c(=O)[nH]c(N)nc43)[C@H](O)[C@@H]2O)[C@@H](COP(=O)(O)OP(=O)(O)OP(=O)(O)OC[C@H]2O[C@@H](C[n+]3cn(C)c4c(=O)[nH]c(N)nc43)[C@H](O)[C@@H]2O)O[C@H]1n1cnc2c(N)ncnc21", "%", 94.7),
    ("CO[C@@H]1[C@H](OP(=O)(O)OC[C@H]2O[C@@H](n3cnc4c(=O)[nH]c(N)nc43)[C@H](O)[C@@H]2O)[C@@H](COP(=O)(O)OP(=O)(O)OP(=O)(O)OC[C@H]2OC([n+]3cn(C)c4c(=O)[nH]c(N)nc43)[C@H](O)[C@@H](O)[C@@H]2O)O[C@H]1n1cnc2c(N)ncnc21 (stereo partly drawn)", "%", 93.4),
]

====

Molecular target: DCP2 enzyme (Schizosaccharomyces pombe)
Construct: purchased New England Biolabs
Sequence (O13828 1-243 limits assumed): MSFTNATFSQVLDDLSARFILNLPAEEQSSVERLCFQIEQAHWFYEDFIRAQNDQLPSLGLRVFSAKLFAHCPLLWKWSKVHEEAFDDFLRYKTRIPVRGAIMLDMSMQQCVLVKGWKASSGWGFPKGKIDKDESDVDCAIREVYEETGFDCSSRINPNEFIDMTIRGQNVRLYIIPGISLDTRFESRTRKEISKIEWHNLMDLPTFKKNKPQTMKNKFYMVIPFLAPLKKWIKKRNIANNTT
Sequence (Q9P805 1-127 partner): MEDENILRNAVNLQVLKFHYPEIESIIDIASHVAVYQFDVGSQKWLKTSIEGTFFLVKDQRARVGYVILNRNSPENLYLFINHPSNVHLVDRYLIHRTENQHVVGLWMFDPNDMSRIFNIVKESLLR
Sequence (Q10108 155-180 partner limits assumed): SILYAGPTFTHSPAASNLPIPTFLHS
Assay: Decapping enzyme stability test
Assay type: biochemical
Details: 50 U mRNA decapping enzyme, 37° C., 45 minutes
Decapping rate (%) of DCP2 enzyme values for the compounds below.
Measured property: Decapping rate (%) of DCP2 enzyme

# Compound, Measured property, Measured number
records = [
    ("CO[C@@H]1[C@H](OP(=O)(O)OC[C@H]2O[C@@H](n3cnc4c(=O)[nH]c(N)nc43)[C@H](O)[C@@H]2O)[C@@H](COP(=O)(O)OP(=O)(O)OP(=O)(O)OC[C@@]2(CF)O[C@@H]([n+]3cn(C)c4c(=O)[nH]c(N)nc43)[C@H](O)[C@@H]2O)O[C@H]1n1cnc2c(N)ncnc21 [YK-CAP-118]", "Decapping rate (%) of DCP2 enzyme", 11.9),
    ("CO[C@@H]1[C@H](OP(=O)(O)OC[C@H]2O[C@@H](n3cnc4c(=O)[nH]c(N)nc43)[C@H](O)[C@@H]2O)[C@@H](COP(=O)(O)OP(=O)(O)OP(=O)(O)OC[C@H]2OC([n+]3cn(C)c4c(=O)[nH]c(N)nc43)[C@H](NC(C)=O)[C@@H](O)[C@@H]2O)O[C@H]1n1cnc2c(N)ncnc21 (some centres unmarked) [YK-CAP-102]", "Decapping rate (%) of DCP2 enzyme", 41.2),
]

====

Relative fluorescence intensity values for the molecules below.
System: HEK293T cells
Assay: Translation efficiency of different capped luciferase mRNAs
Assay type: cell-based
Settings: HEK293T, 0.5 μg mRNA per well, 24 hours; proportional to translation efficiency
Excerpt: […] The relative fluorescence intensity is proportional to the translation efficiency of mRNA.
Measured property: Relative fluorescence intensity

# Molecule, Result
rows = [
    ("COC[C@]1(COP(=O)(O)OP(=O)(O)OP(=O)(O)OC[C@H]2O[C@@H](n3cnc4c(N)ncnc43)[C@H](OC)[C@@H]2OP(=O)(O)OC[C@H]2O[C@@H](n3cnc4c(=O)[nH]c(N)nc43)[C@H](O)[C@@H]2O)O[C@@H]([n+]2cn(C)c3c(=O)[nH]c(N)nc32)[C@H](O)[C@@H]1O [YK-CAP-117]", 1.82),
    ("CNc1ncnc2c1ncn2[C@@H]1O[C@H](COP(=O)(O)OP(=O)(O)OP(=O)(O)OC[C@H]2O[C@@H]([n+]3cn(C)c4c(=O)[nH]c(N)nc43)[C@H](O)[C@@H]2O)[C@@H](OP(=O)(O)OC[C@H]2O[C@@H](n3cnc4c(=O)[nH]c(N)nc43)[C@H](O)[C@@H]2O)[C@H]1OC [m6A, reference compound]", 0.38),
    ("CCN(CC)C(=O)[C@H]1[C@@H](O)[C@H]([n+]2cn(C)c3c(=O)[nH]c(N)nc32)O[C@@H]1COP(=O)(O)OP(=O)(O)OP(=O)(O)OC[C@H]1O[C@@H](n2cnc3c(N)ncnc32)[C@H](OC)[C@@H]1OP(=O)(O)OC[C@H]1O[C@@H](n2cnc3c(=O)[nH]c(N)nc32)[C@H](O)[C@@H]1O [YK-CAP-111]", 2.12),
]

====

System: HEK293T cells
Test: Translation efficiency of different capped luciferase mRNAs
Assay type: cell-based
Conditions: relative to m6A
Description: […] The relative fluorescence intensity is proportional to the translation efficiency of mRNA.
Please note: Multiple of m6A (relative fluorescence intensity) exactly at 2 is class 0. Only values below 2 get class 1.

# Molecule, Test system, Class label
rows = [
    ("COC[C@]1(COP(=O)(O)OP(=O)(O)OP(=O)(O)OC[C@H]2O[C@@H](n3cnc4c(N)ncnc43)[C@H](OC)[C@@H]2OP(=O)(O)OC[C@H]2O[C@@H](n3cnc4c(=O)[nH]c(N)nc43)[C@H](O)[C@@H]2O)O[C@@H]([n+]2cn(C)c3c(=O)[nH]c(N)nc32)[C@H](O)[C@@H]1O", "HEK293T cells", "class 0"),
    ("CO[C@@H]1[C@H](OP(=O)(O)OC[C@H]2O[C@@H](n3cnc4c(=O)[nH]c(N)nc43)[C@H](O)[C@@H]2O)[C@@H](COP(=O)(O)OP(=O)(O)OP(=O)(O)OC[C@@]2(CF)O[C@@H]([n+]3cn(C)c4c(=O)[nH]c(N)nc43)[C@H](O)[C@@H]2O)O[C@H]1n1cnc2c(N)ncnc21", "HEK293T cells", "class 0"),
    ("COC1[C@H](n2cnc3c(N)ncnc32)O[C@H](COP(=O)(O)OP(=O)(O)OP(=O)(O)OC[C@@]23COC([C@H]([n+]4cn(C)c5c(=O)[nH]c(N)nc54)O2)[C@H]3O)[C@H]1OP(=O)(O)OCC1OC(n2cnc3c(=O)[nH]c(N)nc32)C(O)C1O (stereo partly shown) [Compound 14, reference compound]", "HEK293T cells", "class 0"),
    ("CO[C@@H]1[C@H](OP(=O)(O)OC[C@H]2O[C@@H](n3cnc4c(=O)[nH]c(N)nc43)[C@H](O)[C@@H]2O)[C@@H](COP(=O)(O)OP(=O)(O)OP(=O)(O)OC[C@H]2O[C@@H]([n+]3cn(C)c4c(=O)[nH]c(N)nc43)[C@H](O)[C@]2(F)CN(C)C)O[C@H]1n1cnc2c(N)ncnc21", "HEK293T cells", "class 0"),
    ("CCO[C@@H]1[C@H](OP(=O)(O)OC[C@H]2O[C@@H](n3cnc4c(=O)[nH]c(N)nc43)[C@H](O)[C@@H]2O)[C@@H](COP(=O)(O)OP(=O)(O)OP(=O)(O)OC[C@H]2O[C@@H]([n+]3cn(C)c4c(=O)[nH]c(N)nc43)[C@H](O)[C@@H]2O)O[C@H]1n1cnc2c(N)ncnc21 [CAP-2′O-ethyl, reference compound]", "HEK293T cells", "class 0"),
    ("CO[C@@H]1[C@H](OP(=O)(O)OC[C@H]2O[C@@H](n3cnc4c(=O)[nH]c(N)nc43)[C@H](O)[C@@H]2O)[C@@H](COP(=O)(O)OP(=O)(O)OP(=O)(O)OC[C@H]2OC([n+]3cn(C)c4c(=O)[nH]c(N)nc43)[C@H](O)[C@@H](O)[C@@H]2O)O[C@H]1n1cnc2c(N)ncnc21 (stereo partly shown)", "HEK293T cells", "class 1"),
    ("CO[C@@H]1[C@H](OP(=O)(O)OC[C@H]2O[C@@H](n3cnc4c(=O)[nH]c(N)nc43)[C@H](O)[C@@H]2O)[C@@H](COP(=O)(O)OP(=O)(O)OP(=O)(O)OC[C@H]2OC([n+]3cn(C)c4c(=O)[nH]c(N)nc43)[C@H](NC(C)=O)[C@@H](O)[C@@H]2O)O[C@H]1n1cnc2c(N)ncnc21 (stereo partly shown)", "HEK293T cells", "class 1"),
    ("CNc1ncnc2c1ncn2[C@@H]1O[C@H](COP(=O)(O)OP(=O)(O)OP(=O)(O)OC[C@H]2O[C@@H]([n+]3cn(C)c4c(=O)[nH]c(N)nc43)[C@H](O)[C@@H]2O)[C@@H](OP(=O)(O)OC[C@H]2O[C@@H](n3cnc4c(=O)[nH]c(N)nc43)[C@H](O)[C@@H]2O)[C@H]1OC [m6A, reference compound]", "HEK293T cells", "class 1"),
    ("CCN(CC)C(=O)[C@H]1[C@@H](O)[C@H]([n+]2cn(C)c3c(=O)[nH]c(N)nc32)O[C@@H]1COP(=O)(O)OP(=O)(O)OP(=O)(O)OC[C@H]1O[C@@H](n2cnc3c(N)ncnc32)[C@H](OC)[C@@H]1OP(=O)(O)OC[C@H]1O[C@@H](n2cnc3c(=O)[nH]c(N)nc32)[C@H](O)[C@@H]1O", "HEK293T cells", "class 0"),
    ("CO[C@@H]1[C@H](OP(=O)(O)OC[C@H]2O[C@@H](n3cnc4c(=O)[nH]c(N)nc43)[C@H](O)[C@@H]2O)[C@@H](COP(=O)(O)OP(=O)(O)OP(=O)(O)OC[C@H]2O[C@@H]([n+]3cn(C)c4c(=O)[nH]c(N)nc43)[C@H](O)[C@@H]2C(C)F)O[C@H]1n1cnc2c(N)ncnc21 (stereo partly shown)", "HEK293T cells", "class 0"),
    ("COC[C@@H]1[C@H](OP(=O)(O)OC[C@H]2O[C@@H](n3cnc4c(=O)[nH]c(N)nc43)[C@H](O)[C@@H]2O)[C@@H](COP(=O)(O)OP(=O)(O)OP(=O)(O)OC[C@H]2O[C@@H]([n+]3cn(C)c4c(=O)[nH]c(N)nc43)[C@H](O)[C@@H]2O)O[C@H]1n1cnc2c(N)ncnc21", "HEK293T cells", "class 0"),
    ("CO[C@@H]1[C@H](OP(=O)(O)OC[C@H]2O[C@@H](n3cnc4c(=O)[nH]c(N)nc43)[C@H](O)[C@@H]2O)[C@@H](COP(=O)(O)OP(=O)(O)OP(=O)(O)OC[C@H]2O[C@@H]([n+]3cn(C)c4c(=O)[nH]c(N)nc43)[C@H](O)[C@]2(C)C#N)O[C@H]1n1cnc2c(N)ncnc21", "HEK293T cells", "class 1"),
]
